Taken from PubChem BioAssay (EPA / NIEHS).

# Read-out: Bcl-2 (BID) gene, BID (gene 637)
# experiment-description: LTEA_HepaRG_BID: Life Technologies and Expression Analysis (LTEA) Assay for Bcl-2 (BID) gene using HepaRG (AID 2283476)
# setup-conditions: mRNA level, 48 h; actives raise or lower the signal
# Method: LTEA_HepaRG is a cell based, multiplexed-readout assay that uses HepaRG, a human liver cell line, with measurements taken at 48 hours after chemical dosing on a 96-well plate.LTEA_HepaRG_BID is one of 102 assay component(s) measured in the LTEA HepaRG cell culture assay. It is a marker of Cell proliferation, survival, death.Data from the assay component LTEA_HepaRG_BID was analyzed into 1 endpoint. […]
Calls of active or inactive are those of the source. The calls were made as follows: active = hit-call score of the fitted dose curve at least 0.9, where 1 is the maximum; inactive = score below 0.9.
Parameter call: string, one of active, inactive

Some entries whose results are on file:
| compound | assigned-label |
| --- | --- |
| CO[C@@H]1COCC[C@@H]1N[C@@H]1CC[C@@](C(=O)N2CCc3ncc(C(F)(F)F)cc3C2)(C(C)C)C1 | inactive |
| CC(N)=O | active |
| CC1=C(C)S(=O)(=O)CCS1(=O)=O | inactive |

Hey, what did the test say about NC1CCCCC1 ?
inactive

Cool, now COC(=O)CCC(=O)OC
inactive

Cool, now CC(=O)O[C@]1(C(C)=O)CC[C@H]2[C@@H]3C=C(Cl)C4=CC(=O)[C@@H]5C[C@@H]5[C@]4(C)[C@H]3CC[C@@]21C
inactive

Cool, now N[C@@H](Cc1c[nH]c2ccccc12)C(=O)O
inactive

Cool, now CN(C)C(=O)NC1(c2ccccc2)CCN(CC[C@@]2(c3ccc(F)c(F)c3)CN(C(=O)c3ccccc3)CCO2)CC1
inactive

Cool, now Cc1cc(Cc2ccc(N)c(C)c2)ccc1N
inactive

###

# experiment-description: CCTE_Shafer_MEA_acute_burst_number: CCTE's Neural Acute Assay for Single-Electrode Bursts, Shafer Lab (AID 2284013)
The source made the active and inactive calls. The calls were made as follows: active = hit-call score of the fitted dose curve at least 0.9, where 1 is the maximum; inactive = score below 0.9.
readout-label: AC50

| chem-smiles | readout-label | result |
| --- | --- | --- |
| CC1=C(C)S(=O)(=O)CCS1(=O)=O | AC50 | inactive |
| CSc1ccc(Oc2ccc(S(N)(=O)=O)cc2CN(C)C)cc1C | AC50 | inactive |
| CN(C)C(=O)NC1(c2ccccc2)CCN(CC[C@@]2(c3ccc(F)c(F)c3)CN(C(=O)c3ccccc3)CCO2)CC1 | AC50 | 4340 nM (active) |
| O=C(N[C@@H](c1ccccc1)[C@@H]1CCCCN1)c1cccc(C(F)(F)F)c1Cl | AC50 | 3290 nM (active) |

Consider the compound shown here: NC(=Nc1ccccc1)Nc1ccccc1 What is its recorded AC50?
1530 nM (active)

Cool, now Oc1ccc(O)cc1
inactive

Cool, now Cc1cc(Cc2ccc(N)c(C)c2)ccc1N
inactive

Cool, now CN(C)C(=O)NC1(c2ccccc2)CCN(CCC[C@]2(c3ccc(Cl)c(Cl)c3)CCCN(C(=O)c3ccccc3)C2)CC1
inactive

Cool, now CC(N)=O
inactive

Cool, now CCCC(=O)O
inactive

Cool, now COC(=O)[C@H]1[C@H]2C[C@@H]3c4[nH]c5cc(OC)ccc5c4CCN3C[C@H]2C[C@@H](OC(=O)c2cc(OC)c(OC)c(OC)c2)[C@@H]1OC
820 nM (active)

###

# experiment-description: APR_HepG2_NuclearSize_72hr: Apredica 72-hour HepG2 Assay for Nuclear Size (AID 2282925)
# setup-conditions: high-content imaging, actives raise or lower the signal
The source made the active and inactive calls. How the source made its calls: active means hit-call score of the fitted dose curve at least 0.9, where 1 is the maximum; inactive means score below 0.9.
readout-label: outcome

A selection of reference data follows.
| compound | outcome |
| --- | --- |
| O=C1NC(=O)C(c2ccccc2)(c2ccccc2)N1 | inactive |
| COC(=O)CCC(=O)OC | inactive |
| NC1CCCCC1 | inactive |
| O=C(N[C@@H](c1ccccc1)[C@@H]1CCCCN1)c1cccc(C(F)(F)F)c1Cl | inactive |

Consider the compound shown here: O=C(O)c1[nH]n(-c2ccc(S(=O)(=O)O)cc2)c(=O)c1N=Nc1ccc(S(=O)(=O)O)cc1 What is its recorded outcome?
inactive

Cool, now CC(COCC(C)OC(=O)c1ccccc1)OC(=O)c1ccccc1 (configuration not stated)
inactive

Cool, now CC(=O)O[C@]1(C(C)=O)CC[C@H]2[C@@H]3C=C(Cl)C4=CC(=O)[C@@H]5C[C@@H]5[C@]4(C)[C@H]3CC[C@@]21C
inactive

###

# Read-out: Lipase C (LIPC), LIPC (gene 3990)
# experiment-description: LTEA_HepaRG_LIPC: Life Technologies and Expression Analysis (LTEA) Assay for Lipase C (LIPC) using HepaRG (AID 2283514)
# setup-conditions: mRNA level, 48 h; actives raise or lower the signal
Calls of active or inactive are those of the source. The calls were made as follows: active = hit-call score of the fitted dose curve at least 0.9, where 1 is the maximum; inactive = score below 0.9.
Parameter call: string, one of active, inactive

Some entries whose results are on file:
| compound | assigned-label |
| --- | --- |
| CC(C)c1cccc(C(C)C)c1NC(=O)NS(=O)(=O)c1cc(C(C)(C)O)co1 | inactive |
| CN(C)C(=O)NC1(c2ccccc2)CCN(CCC[C@]2(c3ccc(Cl)c(Cl)c3)CCCN(C(=O)c3ccccc3)C2)CC1 | inactive |
| Cc1c(C)c2c(c(C)c1O)CCC(C)(COc1ccc(CC3SC(=O)NC3=O)cc1)O2 (stereo not drawn) | active |
| O=C(NS(=O)(=O)/C=C/c1cccs1)c1ccc(F)cc1Br | inactive |
| O=C1NC(=O)C(c2ccccc2)(c2ccccc2)N1 | inactive |

Hey, what did the test say about Cc1ccc(C(C)(C)C)c(O)c1 ?
inactive

Cool, now COC(=O)CCC(=O)OC
inactive

Cool, now C=CCCCCCCCCCCCC
inactive

Cool, now O=NO
inactive

###

# experiment-description: APR_HepG2_MitoticArrest_24hr: Apredica 24-hour HepG2 Assay for Mitotic Arrest (AID 2282910)
# setup-conditions: high-content imaging, actives raise or lower the signal
The source made the active and inactive calls. The calls were made as follows: active = hit-call score of the fitted dose curve at least 0.9, where 1 is the maximum; inactive = score below 0.9.
Parameter call: string, one of active, inactive

Hey, what did the test say about OCC(CO)n1cnc(-c2ccc(F)cc2)c1-c1ccnc(Oc2ccccc2)n1 ?
inactive

Cool, now CC(N)=O
inactive

Cool, now O=C(N[C@@H](c1ccccc1)[C@@H]1CCCCN1)c1cccc(C(F)(F)F)c1Cl
active

###

# Read-out: BCL2L11 (gene 10018)
# experiment-description: LTEA_HepaRG_BCL2L11: Life Technologies and Expression Analysis (LTEA) Assay for Bcl-2 (BCL2L11) gene using HepaRG (AID 2283473)
# setup-conditions: mRNA level, 48 h; actives raise or lower the signal
Activity calls are given as the source filed them. The calls were made as follows: active = hit-call score of the fitted dose curve at least 0.9, where 1 is the maximum; inactive = score below 0.9.
Parameter call: string, one of Y for active, N for inactive

Some entries whose results are on file:
| compound | assigned-label |
| --- | --- |
| CC(C)(O)c1ccc(CNC(=O)c2cccnc2Oc2ccc(F)cc2)cc1 | N |
| CO[C@@H]1COCC[C@@H]1N[C@@H]1CC[C@@](C(=O)N2CCc3ncc(C(F)(F)F)cc3C2)(C(C)C)C1 | N |
| CC(C)c1cccc(C(C)C)c1 | N |

Hey, what did the test say about O=C(NS(=O)(=O)/C=C/c1cccs1)c1ccc(F)cc1Br ?
N

Cool, now CC(=O)O
N

Cool, now O=C1O[C@H]([C@H](O)CO)C(O)=C1O
N

Cool, now O=C(O)CN(CC(=O)O)CC(=O)O
N

###

# experiment-description: CCTE_Shafer_MEA_dev_AB: CCTE's Alamar Blue Assay for Cytotoxicity in the Neural Network Formation Assay, Shafer Lab (AID 2284083);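 also: resazurin reduction fluorescence as viability of cultured neurons; twelve days of exposure from plating with re-dosing on DIV 5 and 9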
Records with an inconclusive call do not appear. Calls of active or inactive are those of the source. Rule for the calls: active = hit-call score of the fitted dose curve at least 0.9, where 1 is the maximum; inconclusive = response in the unintended direction; inactive = score below 0.9.
Parameter call: string, one of label 1 = active, label 0 = inactive

Some entries whose results are on file:
| compound | assigned-label |
| --- | --- |
| CC(=O)CC(c1ccccc1)c1c(O)c2ccccc2oc1=O (centres undefined) | label 0 |
| COC(=O)[C@H]1[C@H]2C[C@@H]3c4[nH]c5cc(OC)ccc5c4CCN3C[C@H]2C[C@@H](OC(=O)c2cc(OC)c(OC)c(OC)c2)[C@@H]1OC | label 1 |
| CN(C)CCCN1c2ccccc2Sc2ccc(Cl)cc21 | label 1 |

Shift focus to the following entry.
Hey, what did the test say about OCC(O)CO ?
label 0

###

# target-under-test: rat Opioid Receptor, Non-selective Sodium (Na+) Binding, Oprm1 (gene 25601)
# experiment-description: NVS_GPCR_rOpiate_NonSelectiveNa: NovaScreen (NVS) G Protein-Coupled Receptor Assay for rat Opioid Receptor, Non-selective Sodium (Na+) Binding (AID 2283311)
Records with an inconclusive call do not appear. Calls of active or inactive are those of the source. How the source made its calls: active means hit-call score of the fitted dose curve at least 0.9, where 1 is the maximum; inconclusive means response in the unintended direction; inactive means score below 0.9.
readout-label: AC50

| chem-smiles | target-under-test | result |
| --- | --- | --- |
| CCN(CC)CCOc1ccc(C(=C(Cl)c2ccccc2)c2ccccc2)cc1 | rat Opioid Receptor, Non-selective Sodium (Na+) Binding, Oprm1 (gene 25601) | 21 µM (active) |
| Cc1ccc(-c2cc(C(F)(F)F)nn2-c2ccc(S(N)(=O)=O)cc2)cc1 | rat Opioid Receptor, Non-selective Sodium (Na+) Binding, Oprm1 (gene 25601) | inactive |
| CSc1ccc(Oc2ccc(S(N)(=O)=O)cc2CN(C)C)cc1C | rat Opioid Receptor, Non-selective Sodium (Na+) Binding, Oprm1 (gene 25601) | 3.74 µM (active) |
| CN(C)C(=O)NC1(c2ccccc2)CCN(CC[C@@]2(c3ccc(F)c(F)c3)CN(C(=O)c3ccccc3)CCO2)CC1 | rat Opioid Receptor, Non-selective Sodium (Na+) Binding, Oprm1 (gene 25601) | 3.23 µM (active) |

Could you now consider this next molecule?
Find the measured AC50: item COc1ccc(OC(F)(F)F)cc1CN[C@H]1CCCN[C@H]1c1ccccc1 , target or system rat Opioid Receptor, Non-selective Sodium (Na+) Binding, Oprm1 (gene 25601).
inactive
